- EXPERIMENTAL_SYSTEM: Phosphatidylinositol 4,5-bisphosphate 3-kinase catalytic subunit gamma isoform (Homo sapiens)
- Sequence (P48736 whole entry, canonical isoform): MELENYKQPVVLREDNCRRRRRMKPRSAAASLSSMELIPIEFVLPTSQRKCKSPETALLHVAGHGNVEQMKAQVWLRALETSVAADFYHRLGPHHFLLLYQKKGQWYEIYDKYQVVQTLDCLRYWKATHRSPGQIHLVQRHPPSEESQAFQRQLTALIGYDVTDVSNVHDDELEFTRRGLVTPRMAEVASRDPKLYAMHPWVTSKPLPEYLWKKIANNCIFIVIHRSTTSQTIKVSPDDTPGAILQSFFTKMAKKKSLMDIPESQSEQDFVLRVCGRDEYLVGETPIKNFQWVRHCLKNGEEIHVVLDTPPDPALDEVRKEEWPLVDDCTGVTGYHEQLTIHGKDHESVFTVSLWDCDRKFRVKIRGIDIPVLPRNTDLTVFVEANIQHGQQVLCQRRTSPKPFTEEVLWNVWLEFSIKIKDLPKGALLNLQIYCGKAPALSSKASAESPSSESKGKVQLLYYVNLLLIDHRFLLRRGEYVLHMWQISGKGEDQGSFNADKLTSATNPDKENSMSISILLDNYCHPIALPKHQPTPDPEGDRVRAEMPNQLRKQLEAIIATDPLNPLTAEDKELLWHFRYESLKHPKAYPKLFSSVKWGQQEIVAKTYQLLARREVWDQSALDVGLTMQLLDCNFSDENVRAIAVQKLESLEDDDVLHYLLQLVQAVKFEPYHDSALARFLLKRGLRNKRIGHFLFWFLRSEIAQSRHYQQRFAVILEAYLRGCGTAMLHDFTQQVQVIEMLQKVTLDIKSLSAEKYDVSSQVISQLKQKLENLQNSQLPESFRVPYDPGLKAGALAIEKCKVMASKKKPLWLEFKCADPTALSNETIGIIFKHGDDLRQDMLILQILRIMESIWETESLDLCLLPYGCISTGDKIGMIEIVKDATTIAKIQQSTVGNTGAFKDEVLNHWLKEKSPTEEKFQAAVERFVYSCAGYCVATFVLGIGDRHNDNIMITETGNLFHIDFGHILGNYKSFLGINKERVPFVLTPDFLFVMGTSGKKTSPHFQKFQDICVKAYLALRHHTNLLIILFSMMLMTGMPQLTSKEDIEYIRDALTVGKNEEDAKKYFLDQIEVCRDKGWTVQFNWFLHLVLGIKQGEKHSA
pKi: −log10 of the molar value.
METRIC_NAME: pKi

Cc1c(-c2ccccn2)nc2cc(F)ccc2c1N1CC(C)(C)c2ccc(-c3ccnc(N)n3)cc21 7.05

[A] Cc1c(-c2ccccn2)nc2cc(F)ccc2c1N1CC(CO)(CO)c2ccc(N3CCOCC3)cc21
[B] Cc1c(-c2ccccn2)nc2cc(F)ccc2c1N1CC(C)(C)c2ncc(N3CCOCC3)cc21
[C] Cc1cc(-c2ccc3c(c2)N(c2c(C)c(-c4ccccn4)nc4cc(F)ccc24)CC3(C)C)nc(N)n1
[D] Cc1c(-c2ccccn2)nc2cc(F)ccc2c1N1CC2(CS(=O)(=O)C2)c2ccc(N3CCOCC3)cc21
[E] Cc1c(-c2ccccn2)nc2cc(F)ccc2c1N1CC(C)(C)c2ncc(-c3ccnc(N)n3)cc21
Input line: Arrange the 5 entries by pKi so the values rise. Answer format: the labels, ordered as requested.
Output line: A, D, C, B, E
